- TARGET_ENTITY: T1, cynomolgus EpCAM protein (cynomolgus monkey)
- T1 construct: biotinylated in the Octet assays; also called cy EpCAM; cynomolgus monkey EpCAM
- ASSAY_SUMMARY: colorimetric ELISA
QUANTITY_NAME: Cynomolgus EpCAM/Control (ratio)
Report as a plain number; the unit ratio is understood.

Sample records with Cynomolgus EpCAM/Control:
| BINDER | QUANTITY_NAME | VALUE_REPORTED |
| --- | --- | --- |
| Llama anti-EpCAM single domain antibody EPL83 (VHH, E. coli periplasmic extract) VHH: QVQLQESGGGLVQAGGSLRLSCAVSGSIFSLNTLAWYRQAPGRQRDLIARITGGGTTVYADSVKGRFTISRDNAKNTVYLQMNSLKPEDTAVYYCNLMVRHPSGSTYEYWGQGTQVTVSS | Cynomolgus EpCAM/Control | 2 |
| Llama anti-EpCAM single domain antibody EPL57 (VHH, E. coli periplasmic extract) VHH: QVQLQESGGGLVHTGGSLRLSCAFSGDTFLRYAMGWFRQAPGKEREFVAAITWNGGNTDYADSLKGRFTISRDNTKNTVYLQMNSLRPEDTAVYYCAADLTFGLASSHYQYDYWGQGTQVTVSS | Cynomolgus EpCAM/Control | 27 |
| Llama anti-EpCAM single domain antibody EPL78 (VHH, E. coli periplasmic extract) VHH: QVQLQESGGGLVQPGGSLRLSCATSANRFNINVMGWYRQAPGQQRELVATINIGGSTDYADSVKGRFTISRDNAKNTVYLQLSDLKPEDTAVYYCNVKLRVSGPTGPNVYWGQGTQVTVSS | Cynomolgus EpCAM/Control | 11 |
| Llama anti-EpCAM single domain antibody EPL13 (VHH, E. coli periplasmic extract) VHH: QVQLQESGGGLVQPGGSLRLSCAASGFAFGNHWMYWYRQAPGRGRELVASISSGGSTNYVDSVKGRFTISRDNARNTVYLQMYSLKPEDTAVYYCGTSDNWGQGTQVTVSS | Cynomolgus EpCAM/Control | 23 |
| Llama anti-EpCAM single domain antibody EPL97 (VHH, E. coli periplasmic extract) VHH: QVQLQESGGGLVQAGGSLRLSCAASGIIFRGTTMGWFRQAPGKQRESVASISPLGTTSYSGSVEGRFTVSRDNAKNTLFLQMNSLKSEDTAVYYCNAIQVTNVGPRVYWGQGTQVTVSS | Cynomolgus EpCAM/Control | 5 |

Continue with the next binder.
The binder identified as Llama anti-EpCAM single domain antibody EPL74 (VHH, E. coli periplasmic extract) VHH: QVQLQESGGGLVQAGGSLRLSCAASGSIFGINAMGWYRQAPGKQRESVAFITIGGNTNYLDSVKGRFTISRDNAKNTVYLQMNGLKPEDTAVYYCNTNPPLILTAGGLYWGQGTQVTVSS registered its Cynomolgus EpCAM/Control at 5
